B1: Storkhead-box protein 2, residues 64 to 141; numbered along this chain, Q9P2F5 (parent)
chain: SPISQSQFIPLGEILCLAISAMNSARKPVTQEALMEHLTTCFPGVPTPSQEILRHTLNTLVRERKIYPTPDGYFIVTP

Variants of: B1
ASSAY_NAME: abundance fitness (aPCA) (normalised: wild type 0, dead -1); higher = more abundant; growth selection in yeast, the domain comes from the species named
CONDITION_DETAILS: Homo sapiens
Response field class: enum, chosen by comparing abundance fitness against c1 = under -0.1, c2 = from -0.1 up to -0.02, c3 = -0.02 and over

Record excerpt, results attached:
[[record]]
mut = "M22T"
assigned_class = "c1"

[[record]]
mut = "R26I"
assigned_class = "c1"

[[record]]
mut = "E13W"
assigned_class = "c1"

[[record]]
mut = "L15M"
assigned_class = "c2"

[[record]]
mut = "E32W"
assigned_class = "c1"

[[record]]
mut = "M22C"
assigned_class = "c1"

[[record]]
mut = "R64G"
assigned_class = "c3"

[[record]]
mut = "Q5S"
assigned_class = "c3"

[[record]]
mut = "R26W"
assigned_class = "c1"

[[record]]
mut = "S6P"
assigned_class = "c2"


## Input Place this variant in its band: Q5W
## Output c1

## Input Place this variant in its band: V76N
## Output c3

## Input Place this variant in its band: P78H
## Output c1
